From: PubChem BioAssay AID1159580

- assay.explanation: chemical genetic growth profiling, strain panel (AID 1159580);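 also: tested at 20 µM; growth read once vehicle control cultures reached saturation at 30 °C; lower values mean less growth of the strain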
- recorded.conditions: S. cerevisiae deletion strains, growth OD, locus YHR205W, strain SCH9
The campaign covered roughly 5,500 compounds. About 2,000 (36%) were called active. Not shown: some 18% with an inconclusive outcome. Rule as the data show it: active = normalized growth mostly below about 0.91 (no sharp cut-off); inconclusive = no clear call, values can overlap the other calls; inactive = mostly above about 0.92. The list shows a part of the results.
Outcome codes: active, inactive

{"molecule": "O=C1Nc2ccccc2/C1=C\\c1c[nH]c2ccccc12", "answer.label": "active"}
{"molecule": "ONC(=Nc1ccccc1Cl)c1ccccc1Cl", "answer.label": "inactive"}
{"molecule": "O=C(NC(=S)NNc1ncc(C(F)(F)F)cc1Cl)c1cccs1", "answer.label": "active"}
{"molecule": "CC1(C)C=Cc2cc(/C(N)=N\\OC(=O)Nc3cccc(C(F)(F)F)c3)ccc2O1", "answer.label": "inactive"}
{"molecule": "O=C(OCc1ccccc1Br)c1cc([N+](=O)[O-])cc([N+](=O)[O-])c1", "answer.label": "inactive"}
{"molecule": "O=C1/C(=C/c2c[nH]c3ccccc23)CSc2ccccc21", "answer.label": "inactive"}
{"molecule": "COC(=O)/C=C1/OC(c2ccc(OC)cc2)=CC1=O", "answer.label": "active"}
{"molecule": "CCn1nc(C)cc1C(=O)Sc1cccc(Br)c1", "answer.label": "active"}
{"molecule": "O=S(=O)(Nc1ccccc1Sc1c(Cl)cncc1Cl)c1ccc(Cl)cc1", "answer.label": "inactive"}
{"molecule": "OC(COCc1ccccc1)Cn1c2ccccc2c2ccccc21 (centres undefined)", "answer.label": "inactive"}
{"molecule": "CN(C)/C=C1\\CSc2ccc(Cl)cc2C1=O", "answer.label": "inactive"}
{"molecule": "O=c1cc(CSc2ccc(Cl)cc2)c2ccc(O)cc2o1", "answer.label": "inactive"}
{"molecule": "COc1ccccc1N1CCN(C(=O)C(C)c2ccc(CC(C)C)cc2)CC1 (centres undefined)", "answer.label": "inactive"}
{"molecule": "N#Cc1nccnc1N1CCN(C(=O)Nc2cc(Cl)cc(Cl)c2)CC1", "answer.label": "inactive"}
{"molecule": "N#C/C(N=Cc1cc(Cl)cc(Cl)c1O)=C(\\C#N)N=Cc1cc(Cl)cc(Cl)c1O", "answer.label": "active"}
{"molecule": "N#Cc1ccc2[nH]cc(CCN(Cc3ccccc3)Cc3ccccc3)c2c1", "answer.label": "inactive"}
{"molecule": "FC(F)(F)Oc1ccc(OCc2n[nH]c(=S)n2-c2ccc(Cl)cc2)cc1", "answer.label": "inactive"}
{"molecule": "Cc1ccc(Sc2ncccc2NS(=O)(=O)c2ccc(Cl)cc2)cc1", "answer.label": "inactive"}
{"molecule": "O=C(Nc1cc2ccccc2s1)N1CCN(Cc2c(F)cccc2Cl)CC1", "answer.label": "inactive"}
{"molecule": "COc1ccc(Br)c(C(=O)/C(C#N)=C/c2cccs2)c1", "answer.label": "active"}
{"molecule": "N/C(=N/OC(=O)Nc1cccc(C(F)(F)F)c1)c1ccc(OC(F)(F)F)cc1", "answer.label": "inactive"}
{"molecule": "O=C1OC(c2ccccc2)=C/C1=C/c1ccccc1", "answer.label": "active"}
{"molecule": "O=C(O/N=C1/CCCc2[nH]c3ccccc3c21)C1CCCCC1", "answer.label": "inactive"}
{"molecule": "Cc1ccc(OS(=O)(=O)c2c(Cl)sc(Cl)c2Br)c([N+](=O)[O-])n1", "answer.label": "inactive"}
